Parameter: IC50. Scope: all listed entries.
# SYSTEM_NAME: human C5aR(CD88) (Homo sapiens)
# Construct: expressed in transfected cells; host or cells: rat basophilic leukemia cells (RBL)
# ASSAY_SUMMARY: Determination of the IC50 value in an enzyme release assay (functional assay, antagonistic activity)
# Type: cell-based
# CONDITION_PARAMETERS: antagonistic activity; IC50 group in enzyme release assay, RBL cells expressing human C5aR(CD88); read-out: activity (group)
Positions of bridges follow the written chain, without caps; N, C: chain ends. Non-standard residues stand in square brackets, D forms with d. Residues, ends and D or L forms follow the SMILES beside them. Bta = N[C@@H](Cc1csc2ccccc12)C(=O)O; 2Pal = N[C@@H](Cc1ccccn1)C(=O)O; 2Thi = N[C@@H](Cc1cccs1)C(=O)O; dCha = N[C@H](CC1CCCCC1)C(=O)O; Orn = NCCC[C@H](N)C(=O)O; NPrGly = CCCNCC(=O)O

MOLECULE: CC(=O)N[C@@H](Cc1ccccc1)C(=O)N[C@@H](CCCN)C(=O)N1CCC[C@H]1C(=O)N[C@H](CC1CCCCC1)C(=O)N[C@@H](Cc1csc2ccccc12)C(=O)N[C@@H](Cc1ccccn1)C(N)=O [Compound 258, Ac-Phe-Orn-Pro-cha-Bta-Opa-NH2] (Ac-F[Orn]P[dCha][Bta][2Pal]-NH2)
SYSTEM_NAME: human C5aR(CD88) (Homo sapiens)
IC50: 0.05 to 0.2 µM
--
MOLECULE: CCCN(CC(=O)N[C@H](CC1CCCCC1)C(=O)N[C@@H](Cc1csc2ccccc12)C(=O)N[C@@H](Cc1ccccc1)C(N)=O)C(=O)[C@H](CCCN)NC(=O)[C@H](Cc1ccccc1)NC(C)=O [Compound 237, Ac-Phe-Orn-G24-cha-Bta-Phe-NH2] (Ac-F[Orn][NPrGly][dCha][Bta]F-NH2)
SYSTEM_NAME: human C5aR(CD88) (Homo sapiens)
IC50: 0.05 to 0.2 µM
--
MOLECULE: O=C1NCCC[C@H](NCc2ccccc2)C(=O)N2CCC[C@H]2C(=O)N[C@H](CC2CCCCC2)C(=O)N[C@@H](Cc2c[nH]c3ccccc23)C(=O)N[C@H]1Cc1ccccc1 [Compound 57, Ph-CH2-[Orn-Pro-cha-Trp-Phe]]
SYSTEM_NAME: human C5aR(CD88) (Homo sapiens)
IC50: 0.02 to 0.05 µM

Now look at this one.
QUERY: State its IC50 on human C5aR(CD88) (Homo sapiens): CC(=O)N[C@@H](Cc1ccccc1)C(=O)N[C@H]1CCCNC(=O)[C@H](Cc2cccs2)NC(=O)[C@H](Cc2c[nH]c3ccccc23)NC(=O)[C@@H](CC2CCCCC2)NC(=O)[C@@H]2CCCN2C1=O [Compound 38, Ac-Phe-[Orn-Pro-cha-Trp-Thi]] (Ac-F[Orn]P[dCha]W[2Thi]; lactam 2-C)
RESULT: 0.02 to 0.05 µM

---

# SYSTEM_NAME: human C5aR(CD88) (Homo sapiens, UniProt P21730)
# Construct: expressed in transfected cells; host or cells: rat basophilic leukemia cells (RBL)
# Sequence (P21730 1-350): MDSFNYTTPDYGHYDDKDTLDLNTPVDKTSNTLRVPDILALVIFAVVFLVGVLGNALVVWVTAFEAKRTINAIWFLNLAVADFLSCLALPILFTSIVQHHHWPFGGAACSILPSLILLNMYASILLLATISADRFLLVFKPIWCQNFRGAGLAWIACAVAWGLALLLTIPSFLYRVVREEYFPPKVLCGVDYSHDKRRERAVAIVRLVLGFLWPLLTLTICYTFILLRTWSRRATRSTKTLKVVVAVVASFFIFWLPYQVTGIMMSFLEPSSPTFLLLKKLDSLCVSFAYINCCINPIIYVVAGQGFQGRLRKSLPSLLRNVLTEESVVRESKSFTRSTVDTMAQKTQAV
# ASSAY_SUMMARY: Determination of the IC50 value in an enzyme release assay (functional assay, antagonistic activity)
# Format: cell-based
# CONDITION_PARAMETERS: antagonistic activity; IC50 group in enzyme release assay, RBL cells expressing human C5aR(CD88); read-out: activity (group)
pIC50: −log10 of the molar value. Positions of bridges follow the written chain, without caps; N, C: chain ends. Non-standard residues stand in square brackets, D forms with d. Residues, ends and D or L forms follow the SMILES beside them. *: point of attachment. Phe(4-guanidino) = N=C(N)Nc1ccc(C[C@H](N)C(=O)O)cc1; Phe(2-F) = N[C@@H](Cc1ccccc1F)C(=O)O; Bta = N[C@@H](Cc1csc2ccccc12)C(=O)O; Hyp = O=C(O)[C@@H]1C[C@@H](O)CN1; d(hLeu) = CC(C)CC[C@@H](N)C(=O)O; hArg = N=C(N)NCCCC[C@H](N)C(=O)O; dCha = N[C@H](CC1CCCCC1)C(=O)O; Nle = CCCC[C@H](N)C(=O)O; Orn = NCCC[C@H](N)C(=O)O; Aze = O=C(O)[C@@H]1CCN1; tBu = CC(C)(C)*
QUANTITY_NAME: pIC50

Some compounds with known pIC50 results, for comparison:
COMPOUND: CC(=O)N[C@@H](Cc1ccccc1)C(=O)N[C@H]1CCCNC(=O)[C@H](Cc2ccc(NC(=N)N)cc2)NC(=O)[C@H](Cc2c[nH]c3ccccc23)NC(=O)[C@@H](CC2CCCCC2)NC(=O)[C@@H]2CCCN2C1=O [compound 9] (Ac-F[Orn]P[dCha]W[Phe(4-guanidino)]; lactam 2-C)
READING: 5.70 to 6.70

COMPOUND: CC(C)(C)SC[C@H]1NC(=O)[C@@H]2C[C@@H](O)CN2C(=O)[C@@H](NC(=O)[C@@H](N)Cc2ccccc2)CCCNC(=O)[C@H](Cc2ccccc2)NC(=O)[C@H](Cc2c[nH]c3ccccc23)NC1=O [Compound 360, H-Phe-[Orn-Hyp-ctb-Trp-Phe]] (H-F[Orn][Hyp][dC](tBu)WF; lactam 2-C)
READING: 7.30 to 7.70

COMPOUND: CCCC[C@@H]1NC(=O)[C@H](Cc2c[nH]c3ccccc23)NC(=O)[C@@H](CCC(C)C)NC(=O)[C@H](CO)NC(=O)[C@@H](NC(=O)[C@@H](N)Cc2ccccc2)CCCNC1=O [Compound 390, H-Phe-[Orn-Ser-hle-Trp-Nle]] (H-F[Orn]S[d(hLeu)]W[Nle]; lactam 2-C)
READING: 7.30 to 7.70

COMPOUND: CC(=O)N[C@@H](Cc1ccccc1F)C(=O)N[C@@H](CCCN)C(=O)N1CCC[C@H]1C(=O)N[C@H](CC1CCCCC1)C(=O)N[C@@H](Cc1csc2ccccc12)C(=O)N[C@@H](Cc1ccccc1)C(N)=O [Compound 166, Ac-Off-Orn-Pro-cha-Bta-Phe-NH2] (Ac-[Phe(2-F)][Orn]P[dCha][Bta]F-NH2)
READING: 7.30 to 7.70

QUERY: // lookup pIC50 for CC(=O)N[C@@H](Cc1ccccc1)C(=O)N[C@@H](CCCCNC(=N)N)C(=O)N1CC[C@H]1C(=O)N[C@H](CC1CCCCC1)C(=O)N[C@@H](Cc1csc2ccccc12)C(=O)N[C@@H](Cc1ccccc1)C(N)=O [Compound 229, Ac-Phe-Har-Aze-cha-Bta-Phe-NH2] (Ac-F[hArg][Aze][dCha][Bta]F-NH2)
RESULT: 7.70 to 8.00

---

# SYSTEM_NAME: human C5aR(CD88) (Homo sapiens)
# Construct: expressed in transfected cells; host or cells: rat basophilic leukemia cells (RBL)
# ASSAY_SUMMARY: Determination of the IC50 value in an enzyme release assay (functional assay, antagonistic activity)
# Format: cell-based
# CONDITION_PARAMETERS: antagonistic activity; IC50 group in enzyme release assay, RBL cells expressing human C5aR(CD88); read-out: activity (group)
Positions of bridges follow the written chain, without caps; N, C: chain ends. Non-standard residues stand in square brackets, D forms with d. Residues, ends and D or L forms follow the SMILES beside them. *: point of attachment. Phe(3-Cl) = N[C@@H](Cc1cccc(Cl)c1)C(=O)O; Phe(3-OMe) = COc1cccc(C[C@H](N)C(=O)O)c1; Phe(4-Cl) = N[C@@H](Cc1ccc(Cl)cc1)C(=O)O; Phe(4-F) = N[C@@H](Cc1ccc(F)cc1)C(=O)O; Bta = N[C@@H](Cc1csc2ccccc12)C(=O)O; Hyp = O=C(O)[C@@H]1C[C@@H](O)CN1; d(hLeu) = CC(C)CC[C@@H](N)C(=O)O; hCit = NC(=O)NCCCC[C@H](N)C(=O)O; Cit = NC(=O)NCCC[C@H](N)C(=O)O; dCha = N[C@H](CC1CCCCC1)C(=O)O; Nle = CCCC[C@H](N)C(=O)O; Orn = NCCC[C@H](N)C(=O)O; Aze = O=C(O)[C@@H]1CCN1; Dab = NCC[C@H](N)C(=O)O; βAla = NCCC(=O)O; tBu = CC(C)(C)*
QUANTITY_NAME: IC50

MOLECULE: CC(=O)N[C@@H](Cc1ccccc1)C(=O)N[C@@H](CCCNC(N)=O)C(=O)N1CCC[C@H]1C(=O)N[C@H](CC1CCCCC1)C(=O)N[C@@H](Cc1csc2ccccc12)C(=O)N[C@@H](Cc1ccccc1)C(N)=O [Compound 210, Ac-Phe-Cit-Pro-cha-Bta-Phe-NH2] (Ac-F[Cit]P[dCha][Bta]F-NH2)
SYSTEM_NAME: human C5aR(CD88) (Homo sapiens)
READING: 0.05 to 0.2 µM
--
MOLECULE: CC(=O)N[C@@H](Cc1ccccc1)C(=O)N[C@@H](CCCN)C(=O)N1CCC[C@H]1C(=O)N[C@H](CSC(C)(C)C)C(=O)N[C@@H](Cc1cccc(Cl)c1)C(=O)N[C@@H](Cc1ccccc1)C(N)=O [Compound 265, Ac-Phe-Orn-Pro-ctb-Mcf-Phe-NH2] (Ac-F[Orn]P[dC](tBu)[Phe(3-Cl)]F-NH2)
SYSTEM_NAME: human C5aR(CD88) (Homo sapiens)
READING: 0.05 to 0.2 µM
--
MOLECULE: CC(=O)N[C@@H](CCN)C(=O)N[C@@H](Cc1ccccc1)C(=O)N[C@@H](CCCN)C(=O)N1CC[C@H]1C(=O)N[C@H](CC1CCCCC1)C(=O)N[C@@H](Cc1csc2ccccc12)C(=O)N[C@@H](Cc1ccccc1)C(N)=O [Compound 141, Ac-Dab-Phe-Orn-Aze-cha-Bta-Phe-NH2] (Ac-[Dab]F[Orn][Aze][dCha][Bta]F-NH2)
SYSTEM_NAME: human C5aR(CD88) (Homo sapiens)
READING: 0.05 to 0.2 µM
--
MOLECULE: CC(=O)N[C@@H](Cc1ccccc1)C(=O)N[C@@H](CCCN)C(=O)N1CCC[C@H]1C(=O)N[C@H](CC1CCCCC1)C(=O)N[C@@H](Cc1csc2ccccc12)C(=O)N[C@@H](Cc1ccc(Cl)cc1)C(N)=O [Compound 259, Ac-Phe-Orn-Pro-cha-Bta-Pcf-NH2] (Ac-F[Orn]P[dCha][Bta][Phe(4-Cl)]-NH2)
SYSTEM_NAME: human C5aR(CD88) (Homo sapiens)
READING: 0.02 to 0.05 µM
--
MOLECULE: CC(=O)N[C@@H](Cc1ccccc1)C(=O)N[C@@H](CCCN)C(=O)N1CCC[C@H]1C(=O)N[C@H](CC1CCCCC1)C(=O)N[C@@H](Cc1csc2ccccc12)C(=O)N[C@@H](Cc1ccccc1)C(N)=O [Compound 62, Ac-Phe-Orn-Pro-cha-Bta-Phe-NH2] (Ac-F[Orn]P[dCha][Bta]F-NH2)
SYSTEM_NAME: human C5aR(CD88) (Homo sapiens)
READING: 0.02 to 0.05 µM

QUERY: State its IC50 on human C5aR(CD88) (Homo sapiens): COc1cccc(C[C@H](NC(C)=O)C(=O)N[C@@H](CCCN)C(=O)N2CCC[C@H]2C(=O)N[C@H](CCC(C)C)C(=O)N[C@@H](Cc2ccc(F)cc2)C(=O)N[C@@H](Cc2ccccc2)C(N)=O)c1 [Compound 164, Ac-Mmy-Orn-Pro-hle-Pff-Phe-NH2] (Ac-[Phe(3-OMe)][Orn]P[d(hLeu)][Phe(4-F)]F-NH2)
RESULT: 0.05 to 0.2 µM

QUERY: Here is the next molecule: CCCC[C@@H]1NC(=O)[C@H](Cc2c[nH]c3ccccc23)NC(=O)[C@@H](CC2CCCCC2)NC(=O)[C@@H]2C[C@@H](O)CN2C(=O)[C@@H](NC(=O)[C@H](Cc2ccccc2)NC(C)=O)CCCNC1=O [Compound 144, Ac-Phe-[Orn-Hyp-cha-Trp-Nle]] (Ac-F[Orn][Hyp][dCha]W[Nle]; lactam 2-C)
RESULT: 0.01 to 0.02 µM

QUERY: Here is the next molecule: CC(=O)N[C@@H](Cc1ccccc1)C(=O)N[C@H]1CCCNC(=O)[C@H](CCCCNC(N)=O)NC(=O)[C@H](Cc2c[nH]c3ccccc23)NC(=O)[C@@H](CC2CCCCC2)NC(=O)[C@@H]2CCCN2C1=O [compound 13] (Ac-F[Orn]P[dCha]W[hCit]; lactam 2-C)
RESULT: 0.2 to 2 µM

QUERY: Here is the next molecule: CCCC[C@@H]1NC(=O)[C@H](Cc2ccc(F)cc2)NC(=O)[C@@H](CCC(C)C)NC(=O)[C@@H]2CCCN2C(=O)[C@@H](NC(=O)[C@H](Cc2ccccc2)NC(=O)CCN)CCCNC1=O [Compound 343, H-Bal-Phe-[Orn-Pro-hle-Pff-Nle]] (H-[βAla]F[Orn]P[d(hLeu)][Phe(4-F)][Nle]; lactam 3-C)
RESULT: 0.05 to 0.2 µM

QUERY: Here is the next molecule: CCCC[C@@H]1NC(=O)[C@H](Cc2c[nH]c3ccccc23)NC(=O)[C@@H](CC2CCCCC2)NC(=O)[C@@H]2C[C@@H](O)CN2C(=O)[C@@H](NC(=O)[C@@H](N)Cc2ccccc2)CCCNC1=O [Compound 356, H-Phe-[Orn-Hyp-cha-Trp-Nle]] (H-F[Orn][Hyp][dCha]W[Nle]; lactam 2-C)
RESULT: 0.02 to 0.05 µM

QUERY: Here is the next molecule: COc1cccc(C[C@H](NC(=O)[C@@H](CCC(C)C)NC(=O)[C@@H]2CCCN2C(=O)[C@H](CCCN)NC(=O)[C@H](Cc2ccccc2)NC(C)=O)C(=O)N[C@@H](Cc2ccccc2)C(N)=O)c1 [Compound 293, Ac-Phe-Orn-Pro-hle-Mmy-Phe-NH2] (Ac-F[Orn]P[d(hLeu)][Phe(3-OMe)]F-NH2)
RESULT: 0.05 to 0.2 µM
